# Test system: biotinyl-Trp-oxazolone
# test.details: self-aminoacylation, catalytic enhancement (BWO) (fold over background); higher = more active; k-Seq, kA / k0A0; sequences stand for … in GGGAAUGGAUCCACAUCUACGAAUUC…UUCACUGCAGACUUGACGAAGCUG
This sample holds only a part of the variants without activity.
outcome.measure: self-aminoacylation
Form: value (number only, do not type unit).

Specify the recorded self-aminoacylation for AAGUUCGCUAAUAGUAGCAAG [Fam3.1 aminoacylation ribozyme variant] , system: biotinyl-Trp-oxazolone.
1.24

Specify the recorded self-aminoacylation for CUACUUCAAAAUAUCGGUCUG [Fam1A.1 aminoacylation ribozyme variant] , system: biotinyl-Trp-oxazolone.
0.973

Specify the recorded self-aminoacylation for AUUUACCUAGGUCAUCGGGUA [Fam2.2 aminoacylation ribozyme variant] , system: biotinyl-Trp-oxazolone.
22.2

Specify the recorded self-aminoacylation for AUUACCUUGGUCAUCGUGUGA [Fam2.1 aminoacylation ribozyme variant] , system: biotinyl-Trp-oxazolone.
3.57

Specify the recorded self-aminoacylation for CUUACCCUGGUCAUCAAGUGA [Fam2.1 aminoacylation ribozyme variant] , system: biotinyl-Trp-oxazolone.
3.4

---

# Tested on: biotinyl-Val-oxazolone
# test.details: self-aminoacylation, catalytic enhancement (BVO) (fold over background); higher = more active; k-Seq, kA / k0A0; sequences stand for … in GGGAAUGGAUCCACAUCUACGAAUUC…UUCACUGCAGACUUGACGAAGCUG
Variants at the floor of the assay were thinned out.
Assign Fulfilled whenever self-aminoacylation does not fall below 1; assign Not fulfilled whenever it does.

Hi team, for CGACUUCAAACAAUCGGUCGG [Fam1A.1 aminoacylation ribozyme variant] , is the recorded self-aminoacylation at or above 1?
Fulfilled

Hi team, for AUUCACGUAGCUCAUCGGGUG [Fam2.2 aminoacylation ribozyme variant] , is the recorded self-aminoacylation at or above 1?
Fulfilled

Hi team, for AACUUUGCUAAUAGGCGCAAG [Fam3.1 aminoacylation ribozyme variant] , is the recorded self-aminoacylation at or above 1?
Fulfilled

Hi team, for AUUUCCCUGGUCAACGAGUGA [Fam2.1 aminoacylation ribozyme variant] , is the recorded self-aminoacylation at or above 1?
Fulfilled

Hi team, for CUACUUCAAACAAGCGUUCUG [Fam1A.1 aminoacylation ribozyme variant] , is the recorded self-aminoacylation at or above 1?
Not fulfilled

Hi team, for GUUCACCUAGGUCAUCGAGUG [Fam2.2 aminoacylation ribozyme variant] , is the recorded self-aminoacylation at or above 1?
Fulfilled

Hi team, for UUUCACCUAGGUCAUAGGGUG [Fam2.2 aminoacylation ribozyme variant] , is the recorded self-aminoacylation at or above 1?
Fulfilled

Hi team, for AUUCACCUAGGUUAUCGGGGG [Fam2.2 aminoacylation ribozyme variant] , is the recorded self-aminoacylation at or above 1?
Fulfilled

Hi team, for CUGCUUCAAACAAUAGGUCUG [Fam1A.1 aminoacylation ribozyme variant] , is the recorded self-aminoacylation at or above 1?
Not fulfilled

Hi team, for ACUCACCUAGGUUAUCGGGUG [Fam2.2 aminoacylation ribozyme variant] , is the recorded self-aminoacylation at or above 1?
Fulfilled

Hi team, for AUUCACAUAGGUGAUCGGGUG [Fam2.2 aminoacylation ribozyme variant] , is the recorded self-aminoacylation at or above 1?
Fulfilled

Hi team, for CUACUCCGAACAAUCGGUCUG [Fam1A.1 aminoacylation ribozyme variant] , is the recorded self-aminoacylation at or above 1?
Not fulfilled

Hi team, for CAUCACUUCAAGCAAUCGGUC [Fam1B.1 aminoacylation ribozyme variant] , is the recorded self-aminoacylation at or above 1?
Fulfilled

Hi team, for CCCAACUUCAAGCAAUCGGUC [Fam1B.1 aminoacylation ribozyme variant] , is the recorded self-aminoacylation at or above 1?
Fulfilled

Hi team, for AAGUCUGGUAAUAGUCGCAAG [Fam3.1 aminoacylation ribozyme variant] , is the recorded self-aminoacylation at or above 1?
Not fulfilled

Hi team, for CUGCUUGAAACAAUCGGUCUG [Fam1A.1 aminoacylation ribozyme variant] , is the recorded self-aminoacylation at or above 1?
Not fulfilled

Hi team, for AAGUUUGAUAAUAGUAGCAAG [Fam3.1 aminoacylation ribozyme variant] , is the recorded self-aminoacylation at or above 1?
Not fulfilled

Hi team, for CCACAUUGCAAGCAAUCGGUC [Fam1B.1 aminoacylation ribozyme variant] , is the recorded self-aminoacylation at or above 1?
Fulfilled

Hi team, for CUACUUCAGACAAUCGUUCUG [Fam1A.1 aminoacylation ribozyme variant] , is the recorded self-aminoacylation at or above 1?
Not fulfilled

Hi team, for AAGUUUGCUAUUGGUCGCAAG [Fam3.1 aminoacylation ribozyme variant] , is the recorded self-aminoacylation at or above 1?
Not fulfilled

Hi team, for CUACUUCAAAUAAUCGGGCUG [Fam1A.1 aminoacylation ribozyme variant] , is the recorded self-aminoacylation at or above 1?
Not fulfilled

Hi team, for UCUCACCUAGGUCAUCGGGUG [Fam2.2 aminoacylation ribozyme variant] , is the recorded self-aminoacylation at or above 1?
Fulfilled

Hi team, for AAGUUUGCUAAUACUGGCAAG [Fam3.1 aminoacylation ribozyme variant] , is the recorded self-aminoacylation at or above 1?
Not fulfilled

Hi team, for AAGUUGGCUGAUAGUCGCAAG [Fam3.1 aminoacylation ribozyme variant] , is the recorded self-aminoacylation at or above 1?
Fulfilled

Hi team, for UAGUUUGCUAAUAGUCGCAAA [Fam3.1 aminoacylation ribozyme variant] , is the recorded self-aminoacylation at or above 1?
Fulfilled

Hi team, for CCACACUUCAAGCAAUCAGCC [Fam1B.1 aminoacylation ribozyme variant] , is the recorded self-aminoacylation at or above 1?
Fulfilled

Hi team, for GUUCACCUAGGUAAUCGGGUG [Fam2.2 aminoacylation ribozyme variant] , is the recorded self-aminoacylation at or above 1?
Fulfilled

Hi team, for AUUCACCUAGGUCGACGGGUG [Fam2.2 aminoacylation ribozyme variant] , is the recorded self-aminoacylation at or above 1?
Fulfilled

Hi team, for AAGUUUGCUAAGAGUCGGAAG [Fam3.1 aminoacylation ribozyme variant] , is the recorded self-aminoacylation at or above 1?
Not fulfilled

Hi team, for CUACUUCAAACAAUCCGUGUG [Fam1A.1 aminoacylation ribozyme variant] , is the recorded self-aminoacylation at or above 1?
Fulfilled

Hi team, for AAUGCCCUGGUCAUCGAGUGA [Fam2.1 aminoacylation ribozyme variant] , is the recorded self-aminoacylation at or above 1?
Fulfilled
